Respond with Criterion met for melting point values of 200 °C and above, Criterion not met for values below.

{"smilesRepresentation": "c1ccc(CCCNc2nc(Nc3cc(C4CC4)[nH]n3)c3ccccc3n2)cc1", "assignedLabel": "Criterion not met"}
{"smilesRepresentation": "Cc1cccc(Nc2nc(Nc3cc(C4CC4)[nH]n3)c3ccccc3n2)c1", "assignedLabel": "Criterion not met"}
{"smilesRepresentation": "Cc1cc(Nc2nc(Nc3cccc(O)c3)nc3ccccc23)n[nH]1", "assignedLabel": "Criterion met"}
{"smilesRepresentation": "Cc1cc(Nc2cc(C3CC3)[nH]n2)nc(Sc2ccc3ccccc3c2)n1", "assignedLabel": "Criterion met"}
{"smilesRepresentation": "Cc1cc(Nc2nc(Nc3ccccc3CCO)nc3ccccc23)n[nH]1", "assignedLabel": "Criterion met"}
{"smilesRepresentation": "c1csc(CNc2nc(Nc3cc(C4CC4)[nH]n3)c3ccccc3n2)c1", "assignedLabel": "Criterion met"}
{"smilesRepresentation": "Cc1cc(Nc2nc(Nc3ccc(Cl)cc3)nc3ccccc23)n[nH]1", "assignedLabel": "Criterion met"}
{"smilesRepresentation": "c1ccc(Nc2nc(Nc3cc(C4CC4)[nH]n3)c3ccccc3n2)cc1", "assignedLabel": "Criterion met"}
{"smilesRepresentation": "c1cncc(CNc2nc(Nc3cc(C4CC4)[nH]n3)c3ccccc3n2)c1", "assignedLabel": "Criterion not met"}
{"smilesRepresentation": "c1ccc(-c2cccc(Nc3nc(Nc4cc(C5CC5)[nH]n4)c4ccccc4n3)c2)cc1", "assignedLabel": "Criterion not met"}

----------
Form: system (GSK-3β (AA 1-420) (Homo sapiens)), quantity (Ki), values below.

{"smilesRepresentation": "OCCc1ccc(Nc2nc(Nc3cc(C4CC4)[nH]n3)c3ccccc3n2)cc1", "assayedTarget": "GSK-3β (AA 1-420) (Homo sapiens)", "Ki": "< 100 nM"}
{"smilesRepresentation": "CCCc1ccc(Nc2nc(Nc3cc(C4CC4)n[nH]3)c3ccccc3n2)cc1", "assayedTarget": "GSK-3β (AA 1-420) (Homo sapiens)", "Ki": "100 to 1000 nM"}
{"smilesRepresentation": "Cc1cc(Nc2nc(Nc3ccc(CC(=O)O)c(C)c3)nc3ccccc23)n[nH]1", "assayedTarget": "GSK-3β (AA 1-420) (Homo sapiens)", "Ki": "100 to 1000 nM"}
{"smilesRepresentation": "CC(=O)Nc1ccc(Nc2nc(Nc3cc(C4CC4)[nH]n3)c3ccccc3n2)cc1C", "assayedTarget": "GSK-3β (AA 1-420) (Homo sapiens)", "Ki": "100 to 1000 nM"}
{"smilesRepresentation": "CS(=O)(=O)Nc1ccc(Sc2nc(Nc3cc(C4CC4)[nH]n3)c3ccccc3n2)cc1", "assayedTarget": "GSK-3β (AA 1-420) (Homo sapiens)", "Ki": "< 100 nM"}
{"smilesRepresentation": "Cc1cc(Nc2cc(C)[nH]n2)nc(C(C)(C)c2ccccc2)n1", "assayedTarget": "GSK-3β (AA 1-420) (Homo sapiens)", "Ki": "< 100 nM"}
{"smilesRepresentation": "Cc1cc(Nc2cc(N3CCCCC3)nc(SCc3cccc(Cl)c3)n2)n[nH]1", "assayedTarget": "GSK-3β (AA 1-420) (Homo sapiens)", "Ki": "100 to 1000 nM"}
{"smilesRepresentation": "Cc1cc(Nc2nc(Sc3ccc(NC(=O)CN(C)C)cc3)nc3ccccc23)n[nH]1", "assayedTarget": "GSK-3β (AA 1-420) (Homo sapiens)", "Ki": "1000 to 7000 nM"}
{"smilesRepresentation": "COc1cccc2c(Nc3cc(C)[nH]n3)nc(Sc3ccc(NS(C)(=O)=O)cc3)nc12", "assayedTarget": "GSK-3β (AA 1-420) (Homo sapiens)", "Ki": "100 to 1000 nM"}

----------
{"smilesRepresentation": "CCC(=O)Nc1ccc(Sc2nc(Nc3cc(C4CC4)[nH]n3)cc(-c3ccccc3)n2)cc1", "melting point": "208 to 209 °C"}
{"smilesRepresentation": "COc1cccc(Oc2nc(Nc3cc(C)[nH]n3)c3ccccc3n2)c1", "melting point": "277 to 278 °C"}
{"smilesRepresentation": "CCCc1ccc(Nc2nc(Nc3cc(C4CC4)n[nH]3)c3ccccc3n2)cc1", "melting point": "255 to 256 °C"}
{"smilesRepresentation": "Cc1cc(Nc2cc(N3CCOCC3)nc(SCc3cccc(Cl)c3)n2)n[nH]1", "melting point": "224 to 225 °C"}
{"smilesRepresentation": "Cc1cc(Nc2nc(Sc3ccc(F)cc3F)nc3ccccc23)n[nH]1", "melting point": "256 to 258 °C"}
{"smilesRepresentation": "Cc1cc(Nc2nc(Sc3ccc(C(=O)NCCN4CCOCC4)cc3)nc3ccccc23)n[nH]1", "melting point": "246 to 248 °C"}
{"smilesRepresentation": "Cc1cc(Nc2nc(Nc3ccc4ncsc4c3)nc3ccccc23)n[nH]1", "melting point": "236 to 239 °C"}
{"smilesRepresentation": "Cc1cc(Nc2nc(Nc3ccc(N)cc3)nc3ccccc23)n[nH]1", "melting point": "164 to 167 °C"}
{"smilesRepresentation": "Cc1cc(Nc2nc(NCc3cccnc3)nc3ccccc23)n[nH]1", "melting point": "218 °C"}
{"smilesRepresentation": "c1ccc2c(Nc3cc(C4CC4)[nH]n3)nc(Nc3ccc(N4CCOCC4)cc3)nc2c1", "melting point": "275 to 276 °C"}
{"smilesRepresentation": "CN1CCN(c2cc(Nc3cc(C4CC4)[nH]n3)nc(Sc3ccc4ccccc4c3)n2)CC1", "melting point": "113 to 115 °C"}
{"smilesRepresentation": "Cc1cc(Nc2nc(Sc3ccc(NC(=O)CN(C)C(=O)OC(C)(C)C)cc3)nc3ccccc23)n[nH]1", "melting point": "228 to 229 °C (dec.)"}
{"smilesRepresentation": "c1ccc(Cc2nc(Nc3cc(C4CC4)[nH]n3)c3ccccc3n2)cc1", "melting point": "219 to 221 °C"}
{"smilesRepresentation": "COc1ccc(Nc2nc(Nc3cc(C4CC4)[nH]n3)c3ccccc3n2)cn1", "melting point": "120 °C"}
{"smilesRepresentation": "Cc1cc(Nc2cc(-c3ccccc3)nc(Sc3ccc(NC(=O)CN(C)C)cc3)n2)n[nH]1", "melting point": "213 to 215 °C"}
{"smilesRepresentation": "c1ccc2cc(Sc3nccc(Nc4cc(C5CC5)[nH]n4)n3)ccc2c1", "melting point": "248 to 250 °C"}
{"smilesRepresentation": "c1ccc2c(Nc3cc(C4CC4)[nH]n3)nc(Oc3ccc4c(c3)CCCC4)nc2c1", "melting point": "277 to 279 °C"}
{"smilesRepresentation": "Cc1cc(Nc2nc(Sc3ccc(NS(C)(=O)=O)cc3)nc3c(O)cccc23)n[nH]1", "melting point": "291 to 293 °C"}
{"smilesRepresentation": "Cc1cc(Nc2nc(Sc3ccc(N)cc3)nc3ccccc23)n[nH]1", "melting point": "> 300 °C"}
{"smilesRepresentation": "c1ccc2c(Sc3nc(Nc4cc(C5CC5)n[nH]4)c4ccccc4n3)cccc2c1", "melting point": "271 to 273 °C"}
{"smilesRepresentation": "c1ccc(-c2cc(Nc3cc(C4CC4)[nH]n3)nc(Sc3ccc4ccccc4c3)n2)cc1", "melting point": "233 to 234 °C"}
{"smilesRepresentation": "Cc1cc(Nc2nc(NCc3ccccc3)nc3ccccc23)n[nH]1", "melting point": "225 to 227 °C"}
{"smilesRepresentation": "Clc1cccc(Sc2nc(Nc3cc(C4CC4)[nH]n3)c3ccccc3n2)c1", "melting point": "235 to 238 °C"}
{"smilesRepresentation": "Cc1cc(Nc2nc(Sc3ccc(NC(=O)CCN(C)C)cc3)nc3ccccc23)n[nH]1", "melting point": "280 °C (dec.)"}
{"smilesRepresentation": "Cc1cc(Nc2cc(-c3ccccc3)nc(Sc3ccc(NC(=O)CC(C)C)cc3)n2)n[nH]1", "melting point": "241 to 243 °C"}
{"smilesRepresentation": "Cc1cc(Nc2nc(Sc3ccc(NC(=O)C(C)C)cc3)nc3ccccc23)n[nH]1", "melting point": "285 to 287 °C"}
{"smilesRepresentation": "c1ccc2[nH]c(Sc3nc(Nc4cc(C5CC5)[nH]n4)c4ccccc4n3)nc2c1", "melting point": "201 to 203 °C"}
{"smilesRepresentation": "Cc1cc(Nc2nc(NCC3CCCCC3)nc3ccccc23)n[nH]1", "melting point": "211 °C"}
{"smilesRepresentation": "Cc1ccc(Sc2nc(Nc3cc(C4CC4)[nH]n3)c3ccccc3n2)cc1C", "melting point": "255 to 256 °C"}
{"smilesRepresentation": "CS(=O)(=O)Nc1ccc(Sc2nc(Nc3cc(C4CC4)[nH]n3)c3ccccc3n2)cc1", "melting point": "235 to 238 °C"}
{"smilesRepresentation": "Cc1cc(Nc2nc(Nc3ccc(CC#N)cc3)nc3ccccc23)n[nH]1", "melting point": "> 250 °C"}
{"smilesRepresentation": "Cc1cc(Nc2nc(Sc3nc4ccccc4[nH]3)nc3ccccc23)n[nH]1", "melting point": "192 to 196 °C"}
{"smilesRepresentation": "c1ccc2c(Nc3cc(C4CC4)[nH]n3)nc(Nc3ccc4ncsc4c3)nc2c1", "melting point": "255 to 256 °C"}
{"smilesRepresentation": "CC(=O)Nc1ccc(Nc2nc(Nc3cc(C)[nH]n3)c3ccccc3n2)cc1C", "melting point": "251 °C"}
{"smilesRepresentation": "COC(=O)Cc1ccc(Nc2nc(Nc3cc(C)[nH]n3)c3ccccc3n2)cc1C", "melting point": "245 to 246 °C"}
{"smilesRepresentation": "O=C(O)c1cccc(Sc2nc(Nc3cc(C4CC4)[nH]n3)c3ccccc3n2)c1", "melting point": "> 300 °C"}
